Value source: patent US20240166663A1

- assayed-system: EXON 20 Insertion(NPG) Ba/F3 Cell (Homo sapiens, UniProt P00533, INS772GNP, cells depend on it)
- Sequence (P00533 with tags, fused parts or gaps INS772GNP): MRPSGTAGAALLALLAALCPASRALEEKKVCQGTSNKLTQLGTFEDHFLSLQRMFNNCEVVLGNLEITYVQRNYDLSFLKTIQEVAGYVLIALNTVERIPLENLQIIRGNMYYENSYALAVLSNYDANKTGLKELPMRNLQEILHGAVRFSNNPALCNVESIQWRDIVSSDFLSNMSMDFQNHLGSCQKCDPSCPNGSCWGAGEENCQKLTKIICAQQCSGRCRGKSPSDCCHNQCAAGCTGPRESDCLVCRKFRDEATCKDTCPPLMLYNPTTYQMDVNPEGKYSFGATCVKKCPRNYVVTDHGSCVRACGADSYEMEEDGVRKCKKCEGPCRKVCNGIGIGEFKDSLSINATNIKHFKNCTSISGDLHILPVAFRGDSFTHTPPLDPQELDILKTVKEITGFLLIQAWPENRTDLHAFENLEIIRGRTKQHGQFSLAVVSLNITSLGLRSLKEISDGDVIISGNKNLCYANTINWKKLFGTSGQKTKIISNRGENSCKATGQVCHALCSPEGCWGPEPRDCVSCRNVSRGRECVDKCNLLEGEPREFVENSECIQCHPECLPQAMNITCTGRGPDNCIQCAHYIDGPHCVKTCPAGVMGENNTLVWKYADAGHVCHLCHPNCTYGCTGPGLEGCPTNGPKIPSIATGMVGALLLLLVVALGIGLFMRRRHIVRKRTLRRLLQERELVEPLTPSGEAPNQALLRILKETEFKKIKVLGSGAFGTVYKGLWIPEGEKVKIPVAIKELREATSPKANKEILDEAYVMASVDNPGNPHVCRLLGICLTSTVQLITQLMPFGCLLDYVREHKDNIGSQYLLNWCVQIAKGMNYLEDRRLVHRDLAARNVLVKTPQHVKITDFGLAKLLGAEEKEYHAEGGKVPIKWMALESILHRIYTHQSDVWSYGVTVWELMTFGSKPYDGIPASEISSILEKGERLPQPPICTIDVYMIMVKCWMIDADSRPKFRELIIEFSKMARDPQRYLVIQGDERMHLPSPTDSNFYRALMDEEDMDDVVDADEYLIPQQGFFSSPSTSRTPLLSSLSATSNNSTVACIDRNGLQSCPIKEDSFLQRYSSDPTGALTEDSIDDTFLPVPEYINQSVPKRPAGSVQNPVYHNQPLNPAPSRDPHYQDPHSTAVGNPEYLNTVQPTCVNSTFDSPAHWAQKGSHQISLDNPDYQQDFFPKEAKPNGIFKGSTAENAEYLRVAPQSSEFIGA
- assay-remarks: Measurement of cancer cell growth inhibitory effect (MTT assay)
- Format: cell-based, Murine
- test-context: Ba/F3 cells expressing EGFR with NPG added at D770_N771, 72 hours treatment, read at 595 nm, read-out: EXON 20 Insertion(NPG) Ba/F3 Cell(IC50)
Listing: GI50 of selected compounds

Record C=CC(=O)Nc1cc(Nc2ncc(C(=O)OC(C)C)c(Nc3ccccc3-c3ccn(C)n3)n2)c(OC)cc1N1CCOCC1 . Reported GI50: 25 to 50 nM

Record C=CC(=O)Nc1cc(Nc2cc(Nc3ccccc3-c3ccn(C)n3)ncn2)c(OC)cc1N(C)[C@@H]1CCN(C)C1 . Reported GI50: 25 to 50 nM

Record C=CC(=O)Nc1cc(Nc2cc(Nc3ccccc3-n3cccn3)ncn2)c(OC)cc1N(C)CCN(C)C . Reported GI50: < 25 nM

Record C=CC(=O)Nc1cc(Nc2ncc(C(=O)OC(C)C)c(Nc3ccccc3-n3cccn3)n2)c(OC)cc1N(C)CCN(C)C . Reported GI50: < 25 nM

Record C=CC(=O)Nc1cc(Nc2cc(Nc3ccccc3-c3ccn(C)n3)ncn2)c(OC2CC2)cc1N(C)CCN(C)C . Reported GI50: 25 to 50 nM

Record C=CC(=O)Nc1cc(Nc2cc(Nc3ccccc3-n3cccn3)ncn2)c(OC)cc1N(C)CCN(CC)CC . Reported GI50: 25 to 50 nM

Record C=CC(=O)Nc1cc(Nc2cc(Nc3ccccc3-c3ccn(C)n3)ncn2)c(OC)cc1N1CC[C@@H](N(C)C)C1 . Reported GI50: 25 to 50 nM
